Tested on: SK-MEL-28
procedure-text: NCI tumour cell line growth inhibition, 48 h
Calls of active or inactive are those of the source. No stated cut-off is given here; in the data, active = GI50 up to about 1.1 µM and inactive = higher.
quantity-name: GI50

Recorded result, O=c1[nH]nc(-c2ccccc2)n1/N=C\CC/C=N\n1c(-c2ccccc2)n[nH]c1=O , GI50: 23 µM (inactive)

Per the records, this molecule ( CCCNC(=O)Cn1c2c(c3ccccc31)CCCC2 ) has GI50 equal to 88.9 µM (inactive)

# molecule C=CC(=O)Nc1ccc(NC(=O)C=C)c2c1C(=O)c1ccccc1C2=O ; its GI50 = 33.5 µM (inactive)

What the record says about CSc1ncnc2c1CCN2 : GI50 is > 10 µM (inactive)

Lookup result for Cc1ccc(N(O)C(C)(C)C)cc1 ; measured GI50: > 100 µM (inactive)

// GI50 value for Cn1c(-c2cccs2)cc(-c2cccs2)c1-c1ccsc1 : > 100 µM (inactive)

For record Cn1ccc2c(c1=O)C(=O)OC2(C)C [CERPEGIN] the listed GI50 is > 100 µM (inactive)

For record O=C1C/C(=C\c2ccccc2)C(=O)c2ccccc2N1 the listed GI50 is 29.5 µM (inactive)

N#Cc1c2c([nH]c(=O)c1C#N)CCCC2 yielded GI50 of > 100 µM (inactive)

Lab book: GI50 of CCO[C@@]12CCC3CC4CC[C@@](OCC)(O1)C4C32 (some centres not stated) noted as > 100 µM (inactive)

The measured GI50 associated with CCOP(=O)(OCC)/C(C#N)=C/c1ccc[nH]1 reads > 100 µM (inactive)

# molecule O=C(CCCN1CCC2(CC1)CC(=O)N(N1CCOCC1)C2=O)c1ccccc1 ; its GI50 = > 100 µM (inactive)

====

Tested on: K562
procedure-text: NCI tumour cell line growth inhibition, 48 h
Active and inactive are the calls of the source. No stated cut-off is given here; in the data, active = GI50 up to about 1.1 µM and inactive = higher.
Log the outcome using a class from active, inactive

Inquiry: What did this assay record as the result for CNC(=O)NC(CCCCNC(=O)OCc1ccccc1)C(=O)OCc1ccccc1 (stereo unspecified) ?
Reply text: inactive

Inquiry: Can you look up the reported call for O=C(N/N=C\C(F)(F)F)c1ccncc1 for me?
Reply text: inactive

Inquiry: I would be grateful if you could indicate the recorded call for C[C@@H]1C[C@@H]2C(=O)N(c3ccccc3)C(=O)[C@@H]2c2[nH]c3ccc(Br)cc3c21 .
Reply text: inactive

Inquiry: What did this assay record as the result for O=C1NC(=S)N/C1=C\c1ccc(Br)s1 ?
Reply text: inactive

Inquiry: Could you check what this test reported for Nc1ccccc1C(=O)NC(=O)Nc1ccc(Oc2ncc(Br)cn2)c(Cl)c1 ?
Reply text: active

Inquiry: What classification did COc1ccc2nc(C(=O)c3ccccc3)c(C)cc2c1 end up with in this test?
Reply text: active

====

Kindly state GI50 for each of the entries shown.
Test system: MCF7
procedure-text: NCI tumour cell line growth inhibition, 48 h
Activity calls are given as the source filed them. No stated cut-off is given here; in the data, active = GI50 up to about 1.1 µM and inactive = higher.

The compound CC(C)(Br)C(Br)CCC(C)(Br)C(Br)CO (stereo unspecified) on MCF7: GI50 was > 10 µM (inactive)

Here O=[N+]([O-])c1ccc(-c2cc(O)c3nc4ccccc4n3c2)cc1 was tested on MCF7, and its GI50 came to > 84.7 µM (inactive)

// returns GI50 for O=[N+]([O-])c1cc2ncc(-c3ccccc3)c(O)c2cc1/C(Cl)=C/c1ccccc1 with MCF7; value = 5.02 µM (inactive)

Value (GI50, MCF7) for record O=C1NCCCc2nonc21 = > 100 µM (inactive)

GI50 value, target or system MCF7, for CC1C2(C)OC(=N)C(C#N)(C(C)O2)C1(C#N)C#N (stereo unspecified) : 24.8 µM (inactive)

Measured GI50 for this entry N/N=C1/C2CN3CCN(C2)CC1(c1ccc([N+](=O)[O-])cc1)C3 on MCF7: > 100 µM (inactive)

====

Task for the reader: assign each of the following compounds its reported GI50.
System: OVCAR-5
procedure-text: NCI tumour cell line growth inhibition, 48 h
Active and inactive are the calls of the source. No stated cut-off is given here; in the data, active = GI50 up to about 1.1 µM and inactive = higher.

Entry COc1cc(C)cc2c(-c3c(O)cc(O)c4c3C[C@H](C)N[C@H]4C)cc(-c3cc(-c4c(O)cc(O)c5c4C[C@H](C)N[C@H]5C)c4cc(C)cc(OC)c4c3O)c(O)c12 ; GI50 = 21.4 µM (inactive)

GI50 reported for this compound Cn1c(=O)[nH]c2[nH]c3ccccc3c2c1=O : > 100 µM (inactive)

Consider CCN(CC)C(=S)N/N=C/c1cc([N+](=O)[O-])ccc1O . Its measured GI50 is 24.3 µM (inactive)

Given item CC(=O)Nc1ccc(C(=O)NN2C(=O)C(Cl)C2/C=C/c2ccccc2)cc1 (stereo not given) , the value recorded as its GI50 is > 100 µM (inactive)

The compound listed as COc1cc(=O)oc(/C=C/CO)c1C has a reported GI50 of > 100 µM (inactive)

compound COc1nc2c(c(=O)n1C)N=C(c1ccc(Cl)cc1)CC(c1ccccc1)N2 (stereo not given) , GI50 observed: 25.6 µM (inactive)

Reported GI50 for O=c1[nH]cc(-c2c[nH]c3ccccc23)nc1-c1c[nH]c2ccccc12 was 11.2 µM (inactive)

For record CC(C)(C)c1c(C(C)(C)C)c(=O)c1=O the listed GI50 is > 100 µM (inactive)

Record summary for COc1cc(/C=C2/SC(c3ccccc3)N(Cc3ccccc3)C2=O)cc(OC)c1OC (stereo not given) : reported GI50 = 80.9 µM (inactive)

Record CC(Br)CN1CCOCC1 (stereo not given) , field GI50: > 100 µM (inactive)

====

Please respond with reported GI50 for every item in the list.
Tested on: Hs-578T
procedure-text: NCI tumour cell line growth inhibition, 48 h
Calls of active or inactive are those of the source. Rule as the data show it: active = GI50 up to about 1.1 µM and inactive = higher.

Lab book: GI50 of CNc1ccc(N)cc1C(=O)N1CCC[C@H]1CO noted as > 100 µM (inactive)

Measured GI50 of CC(=O)OCC(OC(C)=O)C(OC(C)=O)C(OC(C)=O)C(C=NN(C(C)=O)S(=O)(=O)c1ccc(/C=C2\NC(=O)NC2=O)cc1)OC(C)=O (stereo not given) : > 100 µM (inactive)

Form field GI50, entry Nc1cccc(C2CCCc3c2[nH]c2ccccc32)c1 (stereo not given) : 16 µM (inactive)

So for CCOc1cc(NC(C)=O)ccc1C(=O)N/N=C/c1ccco1 , the logged GI50 turned out to be > 100 µM (inactive)

The measured GI50 associated with CC1=NN(c2nc(N)nc(CSc3cc(Cl)c(C)cc3S(N)(=O)=O)n2)C(C)(C)C1 reads > 10 µM (inactive)

====

Test system: SK-MEL-2
procedure-text: NCI tumour cell line growth inhibition, 48 h
The source made the active and inactive calls. No stated cut-off is given here; in the data, active = GI50 up to about 1.1 µM and inactive = higher.
Hello, when you answer, please use one of the following outcomes: active, inactive

Inquiry: Could you kindly confirm the outcome this assay logged for COc1cc2c(cc1OC)C(=O)/C(=C/c1ccccc1)C2 ?
Reply text: inactive

Inquiry: What did this assay record as the result for CCCCOP(=O)(OCCCC)/C(C#N)=C/c1ccco1 ?
Reply text: inactive

Inquiry: Which outcome did this test record for the compound COc1cc([C@@H]2c3cc4c(cc3[C@@H](NCc3ccccc3F)C3COC(=O)[C@@H]32)OCO4)cc(OC)c1O (stereo partly drawn) ?
Reply text: inactive

Inquiry: Test call for this compound, please: CC(C)CC(C#CCCOC(=O)c1ccccc1)OC(=O)c1ccccc1 (stereo not drawn)
Reply text: inactive

Inquiry: What did the test return for O=C(CSc1nc2ccc(I)cc2c(=O)n1Cc1ccccc1)NNC(=O)c1ccccc1 ?
Reply text: inactive

Inquiry: Test call, this compound: COC1C=C(Nc2cccc(Cl)c2)C(=O)C1 (stereo not drawn)
Reply text: inactive

Inquiry: Recorded test call requested for COc1ccc(OC)c(C(=O)/C=C/c2cc(O)c(O)cc2F)c1
Reply text: active

Inquiry: Recorded test call requested for C/C(=N/N)c1sc(-c2nc(C)c(/C(C)=N\N)s2)nc1C
Reply text: inactive

Inquiry: What did this assay record as the result for NC(=O)CCSC(CC(=O)c1ccc(Cl)cc1)c1ccc(Cl)cc1 (stereo not drawn) ?
Reply text: inactive

Inquiry: Entry C[C@H](C(O)CC(=O)C(C)(C)O)[C@H]1CC[C@@]2(C)[C@@H]3CC[C@H]4C(C)(C)[C@@H](OC5OC(COC6OC(CO)C(O)C(O)C6O)C(O)C(O)C5O)CC[C@]4(C)C3=CC[C@]12C (stereo partly drawn) : call = ?
Reply text: inactive

Inquiry: # lookup: test call for Cc1cc(S(=O)(=O)Nc2nc(N)n(-c3cnc4ccccc4n3)n2)c(S)cc1Cl
Reply text: inactive

Inquiry: What did the test return for CCOC(=O)C(NC(=O)CC)(Nc1cc(C)on1)C(F)(F)F (stereo not drawn) ?
Reply text: inactive

Inquiry: Write down the call the test reported for this compound. Item: C=C(C(=O)O)[C@@H]1C[C@@H](OC(C)=O)[C@]2(C)CC/C=C(\C)CCC[C@H](C)[C@H](O)[C@@H]1O2
Reply text: inactive

Inquiry: Answer briefly: the call reported for CCCCCCCCCCCCCCCCOP(=O)(O)OP(=O)(O)OCC1OC(n2cnc3c(N)ncnc32)C(O)C1O (stereo not drawn) in this assay.
Reply text: inactive

Inquiry: // return assay outcome for COc1ccc(/C=C/CN(C)CCc2ccccc2)cc1OC
Reply text: inactive

Inquiry: For this compound, state the assay outcome: CCN(CC)c1ccc2cc(C(=O)Nc3ccc4[nH]c(C(=O)N5C[C@@H](CCl)c6c5cc(OC(=O)Nc5ccccc5)c5[nH]cc(C)c65)cc4c3)oc2c1
Reply text: active

Inquiry: Record request — test call for O=C1NC(=S)NC(=O)C1C(c1ccc(Cl)cc1)C1C(=O)NC(=S)NC1=O.c1ccncc1
Reply text: inactive

Inquiry: Status in this test for Nc1nc(-c2ccco2)cc(-c2ccc(CO)o2)n1 ?
Reply text: inactive
